# EXPERIMENTAL TARGET: T1, TGFβ1 (R&D Systems)
# T1 construct: also called TGFB1
# T1 sequence (P01137 279-390): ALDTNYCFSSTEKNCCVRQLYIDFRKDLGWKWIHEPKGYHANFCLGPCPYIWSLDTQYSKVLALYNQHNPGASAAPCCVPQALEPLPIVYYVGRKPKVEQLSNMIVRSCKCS
# PROCEDURE DETAILS: single point SPR
OUTCOME MEASURE: log10(Kd) (log10 of the value in nM)
Kindly note that the scale is log10 and the underlying Kd is in nM.

Consider the worked cases shown below.
Data point: Can-SL501-VH3 Y111F / Can-SL501-VL2 (antibody, V domains shown) VH: EVQLVESGGDLVKPGGSLRLSCVASGFTFSSYGMHWVRQAPGKELEWVAVISYDGSIKYYADAVKGRFTISRDNAKNTLYLQMNSLRAEDTAVYYCARTGEYSGYDTDPQFSWGQGTTVTVSS VL: EIVMTQSPGSLAGSAGESVSINCRASQGIGDDLGWYQQKPGERPKLLIYGTSTLQSGVPARFSSSGSGTDFTLTINNLQAEDVGDYYCLQDSNYPLTFGAGTK ; log10(Kd) = 0.91

Data point: Can-SL501-VH3 P109H / Can-SL501-VL2 (antibody, V domains shown) VH: EVQLVESGGDLVKPGGSLRLSCVASGFTFSSYGMHWVRQAPGKELEWVAVISYDGSIKYYADAVKGRFTISRDNAKNTLYLQMNSLRAEDTAVYYCARTGEYSGYDTDHQYSWGQGTTVTVSS VL: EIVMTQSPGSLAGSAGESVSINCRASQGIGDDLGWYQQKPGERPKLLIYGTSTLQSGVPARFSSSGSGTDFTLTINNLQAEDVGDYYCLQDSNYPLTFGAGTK ; log10(Kd) = 0.13

Data point: Can-SL501-VH3 D108P / Can-SL501-VL2 (antibody, V domains shown) VH: EVQLVESGGDLVKPGGSLRLSCVASGFTFSSYGMHWVRQAPGKELEWVAVISYDGSIKYYADAVKGRFTISRDNAKNTLYLQMNSLRAEDTAVYYCARTGEYSGYDTPPQYSWGQGTTVTVSS VL: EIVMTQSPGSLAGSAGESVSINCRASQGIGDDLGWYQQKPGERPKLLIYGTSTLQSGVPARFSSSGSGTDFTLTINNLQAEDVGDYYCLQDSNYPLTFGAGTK ; log10(Kd) = 0.55

Data point: Can-SL501-VH3 Y111T / Can-SL501-VL2 (antibody, V domains shown) VH: EVQLVESGGDLVKPGGSLRLSCVASGFTFSSYGMHWVRQAPGKELEWVAVISYDGSIKYYADAVKGRFTISRDNAKNTLYLQMNSLRAEDTAVYYCARTGEYSGYDTDPQTSWGQGTTVTVSS VL: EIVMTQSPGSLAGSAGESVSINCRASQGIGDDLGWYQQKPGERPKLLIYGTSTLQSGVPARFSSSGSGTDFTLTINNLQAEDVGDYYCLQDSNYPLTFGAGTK ; log10(Kd) = -0.34

With those in mind, consider the next binder.
Data point: Can-SL501-VH3 Q110H / Can-SL501-VL2 (antibody, V domains shown) VH: EVQLVESGGDLVKPGGSLRLSCVASGFTFSSYGMHWVRQAPGKELEWVAVISYDGSIKYYADAVKGRFTISRDNAKNTLYLQMNSLRAEDTAVYYCARTGEYSGYDTDPHYSWGQGTTVTVSS VL: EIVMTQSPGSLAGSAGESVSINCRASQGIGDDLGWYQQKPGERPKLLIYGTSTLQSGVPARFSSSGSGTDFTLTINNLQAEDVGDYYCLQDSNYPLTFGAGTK ; log10(Kd) = 0.76
